- CONDITION DETAILS: in n-heptane, 313 K

| SMILES TEXT | solubility (mole fraction) |
| --- | --- |
| c1ccc2c(c1)ccc1ccccc12 | 0.036 |

----------
- CONDITION DETAILS: in n-heptane, 303 K

| SMILES TEXT | solubility (mole fraction) |
| --- | --- |
| c1ccc2c(c1)ccc1ccccc12 | 0.0247 |

----------
- CONDITION DETAILS: in toluene, 323 K

| SMILES TEXT | solubility (mole fraction) |
| --- | --- |
| c1ccc2c(c1)ccc1ccccc12 | 0.604 |

----------
- CONDITION DETAILS: in n-heptane, 323 K

| SMILES TEXT | solubility (mole fraction) |
| --- | --- |
| c1ccc2c(c1)ccc1ccccc12 | 0.0519 |

Data origin, for the record: BigSolDB 2.1
